Source: patent EP0896002A1

For each entry below, report its pIC50 value.
# subject_of_test: α4·IgG heavy chain-β1·IgG heavy chain chimeric protein heterodimer complex (integrin α4β1; sequence Nos. 1 and 2) (Homo sapiens, UniProt P05556+P13612)
# Construct: made in house; culture supernatant used in the assay
# Sequence (P13612 35-977 limits assumed, change not shown): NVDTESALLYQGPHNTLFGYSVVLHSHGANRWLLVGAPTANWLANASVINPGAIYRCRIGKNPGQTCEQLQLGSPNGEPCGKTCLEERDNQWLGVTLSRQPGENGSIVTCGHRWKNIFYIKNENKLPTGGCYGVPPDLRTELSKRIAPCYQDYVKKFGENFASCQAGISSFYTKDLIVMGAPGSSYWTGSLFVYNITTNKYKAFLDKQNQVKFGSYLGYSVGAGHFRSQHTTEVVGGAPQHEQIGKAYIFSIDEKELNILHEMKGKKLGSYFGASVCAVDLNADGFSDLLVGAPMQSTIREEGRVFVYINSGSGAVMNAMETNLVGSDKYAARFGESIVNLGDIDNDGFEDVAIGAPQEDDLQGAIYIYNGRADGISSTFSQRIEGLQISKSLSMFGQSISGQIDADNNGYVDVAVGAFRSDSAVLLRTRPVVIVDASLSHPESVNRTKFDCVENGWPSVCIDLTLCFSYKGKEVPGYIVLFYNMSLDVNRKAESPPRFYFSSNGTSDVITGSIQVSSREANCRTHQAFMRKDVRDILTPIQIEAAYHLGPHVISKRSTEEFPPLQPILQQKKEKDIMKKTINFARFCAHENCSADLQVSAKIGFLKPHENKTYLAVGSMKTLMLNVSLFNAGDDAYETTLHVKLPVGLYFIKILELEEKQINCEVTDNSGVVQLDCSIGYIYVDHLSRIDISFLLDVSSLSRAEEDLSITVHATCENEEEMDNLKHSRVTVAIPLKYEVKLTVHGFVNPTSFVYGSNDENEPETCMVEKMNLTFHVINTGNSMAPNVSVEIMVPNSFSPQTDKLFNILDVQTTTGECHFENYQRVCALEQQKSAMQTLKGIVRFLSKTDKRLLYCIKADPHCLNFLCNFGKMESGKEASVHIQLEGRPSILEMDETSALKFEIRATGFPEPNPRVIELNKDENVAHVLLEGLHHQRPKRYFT
# Sequence (P05556 21-728 limits assumed, change not shown): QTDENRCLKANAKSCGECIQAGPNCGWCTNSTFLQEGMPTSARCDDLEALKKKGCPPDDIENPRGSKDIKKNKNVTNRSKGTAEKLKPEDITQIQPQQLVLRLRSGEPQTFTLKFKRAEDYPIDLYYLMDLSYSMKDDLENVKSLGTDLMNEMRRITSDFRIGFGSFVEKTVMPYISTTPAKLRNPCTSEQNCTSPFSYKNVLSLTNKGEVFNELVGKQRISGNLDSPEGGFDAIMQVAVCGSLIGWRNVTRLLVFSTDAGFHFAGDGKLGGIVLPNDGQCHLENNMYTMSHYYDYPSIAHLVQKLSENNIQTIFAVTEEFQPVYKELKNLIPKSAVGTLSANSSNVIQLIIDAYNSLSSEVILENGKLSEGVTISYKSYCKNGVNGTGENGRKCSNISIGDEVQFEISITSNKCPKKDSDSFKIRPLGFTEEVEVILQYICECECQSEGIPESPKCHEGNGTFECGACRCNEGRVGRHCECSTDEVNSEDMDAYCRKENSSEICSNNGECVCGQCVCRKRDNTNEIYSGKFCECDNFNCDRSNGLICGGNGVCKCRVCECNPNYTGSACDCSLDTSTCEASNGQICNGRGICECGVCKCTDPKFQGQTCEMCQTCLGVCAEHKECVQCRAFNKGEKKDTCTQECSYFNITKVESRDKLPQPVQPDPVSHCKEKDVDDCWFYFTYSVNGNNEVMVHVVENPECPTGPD
# Sequence (P01857 99-330 partner limits assumed): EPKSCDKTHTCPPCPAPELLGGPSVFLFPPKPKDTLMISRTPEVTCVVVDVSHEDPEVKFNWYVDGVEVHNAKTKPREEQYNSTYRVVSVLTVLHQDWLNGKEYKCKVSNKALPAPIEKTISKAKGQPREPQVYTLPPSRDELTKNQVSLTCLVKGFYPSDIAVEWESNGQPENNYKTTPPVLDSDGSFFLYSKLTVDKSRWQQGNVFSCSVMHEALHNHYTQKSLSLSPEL
# assay: Inhibition of the binding of the α4·IgG heavy chain-β1·IgG heavy chain chimeric protein heterodimer complex to solid-phase CS-1-IgG (peptide fragment of fibronectin), ELISA-type detection at 490 nm
# condition_notes: binding assay system of Example 9: binding to CS-1-IgG; cyclic phage-library peptides; read-out: Inhibitory activity IC50
Answers are plain numbers, as −log10 of the molar value.

[[record]]
substance = "Cys* Ile Pro Glu Leu Ile Val Cys* (IPELIVC; printed: Ile Pro Glu Leu Ile Val Cys) [Sequence No. 24]"
result_value = 5.92

[[record]]
substance = "Cys* Met Arg Tyr Thr Ser Ala Cys* (MRYTSAC; printed: Met Arg Tyr Thr Ser Ala Cys) [Sequence No. 25]"
result_value = 5.64

[[record]]
substance = "Cys* Leu Arg Tyr Ser Val Pro Cys* (LRYSVPC; printed: Leu Arg Tyr Ser Val Pro Cys) [Sequence No. 28]"
result_value = 5.74


// next entry
[in] Which pIC50 is reported for this substance? Cys* Gly Leu Gln Ala Leu Pro Cys* (GLQALPC; printed: Gly Leu Gln Ala Leu Pro Cys) [Sequence No. 30]
[out] 5.00
